For each of the compounds below, state its pEC50.
Molecular target: Peptidoglycan D,D-transpeptidase FtsI (UniProt P0AD68)
Sequence (P0AD68 whole entry): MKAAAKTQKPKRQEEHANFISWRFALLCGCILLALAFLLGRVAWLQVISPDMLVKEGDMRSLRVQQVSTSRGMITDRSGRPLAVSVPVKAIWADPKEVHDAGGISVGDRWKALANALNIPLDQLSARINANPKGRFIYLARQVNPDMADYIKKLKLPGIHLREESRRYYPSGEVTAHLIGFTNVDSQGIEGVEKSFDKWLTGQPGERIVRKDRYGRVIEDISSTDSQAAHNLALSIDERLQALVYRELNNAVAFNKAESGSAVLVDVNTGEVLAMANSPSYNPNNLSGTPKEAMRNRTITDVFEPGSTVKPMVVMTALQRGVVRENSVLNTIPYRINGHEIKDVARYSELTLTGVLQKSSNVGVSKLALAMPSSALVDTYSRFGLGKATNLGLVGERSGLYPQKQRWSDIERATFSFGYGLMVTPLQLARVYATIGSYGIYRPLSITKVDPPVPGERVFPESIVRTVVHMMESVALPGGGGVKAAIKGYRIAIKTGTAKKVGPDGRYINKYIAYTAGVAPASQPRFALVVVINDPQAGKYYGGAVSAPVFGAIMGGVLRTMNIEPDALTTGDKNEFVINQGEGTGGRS
Experiment: Fluorescence Polarization (FP) Competition Binding Assay
pEC50: −log10 of the molar value.

- CCN1CCN(C(=O)NC(C(=O)N[C@H]2Cc3cccc(C(=O)O)c3OB2O)c2ccc(O)c(S(N)(=O)=O)c2)C(=O)C1=O (some centres not stated) [US12173018, Example 143]: > 4.52

Which pEC50 value is on record for NCCN1CCN(C(=O)N[C@@H](C(=O)N[C@H]2Cc3cccc(C(=O)O)c3OB2O)c2ccc(O)c(O)c2Cl)C(=O)C1=O [US12173018, Example 220] ?
> 4.52
